Biological target: T1, Recombinant human CD4 (R&D Systems, Cat. 10327-CD) (human, UniProt P01730 26-390, limits assumed)
T1 construct: Bought protein; also called huCD4
Experiment: BLI (Octet Red384), purified antibody on anti-mouse Fc sensors, human CD4 100/50/25 nM, global 1:1 fit;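 note: antibodies loaded at 10 µg/mL, curves fitted across association and dissociation phases, with an unrelated mouse-derived antibody serving as internal reference control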
For each entry below, report its Response value.
Answers are plain numbers.

75110_09G15A (antibody, V domains shown, Tested as antibody purified from AlivaMab Mouse Kappa hybridoma (human V regions, kappa light chain, mouse Fc captured by anti-mouse Fc sensors)) VH: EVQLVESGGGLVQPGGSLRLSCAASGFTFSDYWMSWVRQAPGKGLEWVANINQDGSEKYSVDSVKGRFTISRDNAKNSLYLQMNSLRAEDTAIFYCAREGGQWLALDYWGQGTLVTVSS VL: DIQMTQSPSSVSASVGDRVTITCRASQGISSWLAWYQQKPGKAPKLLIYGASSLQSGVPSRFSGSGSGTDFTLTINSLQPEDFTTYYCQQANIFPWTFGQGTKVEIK
0.21
75110_07H07A (antibody, V domains shown, Tested as antibody purified from AlivaMab Mouse Kappa hybridoma (human V regions, kappa light chain, mouse Fc captured by anti-mouse Fc sensors)) VH: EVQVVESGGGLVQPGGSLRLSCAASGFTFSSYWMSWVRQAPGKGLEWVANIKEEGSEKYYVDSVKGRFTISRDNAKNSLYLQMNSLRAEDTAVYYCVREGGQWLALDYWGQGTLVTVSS VL: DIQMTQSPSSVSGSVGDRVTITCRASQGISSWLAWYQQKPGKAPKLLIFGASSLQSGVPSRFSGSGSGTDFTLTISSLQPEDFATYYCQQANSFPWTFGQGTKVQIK
0.16

With those in mind, consider the next binder.
GET /values?readout=Response&item= 75110_07J24A (antibody, V domains shown, Tested as antibody purified from AlivaMab Mouse Kappa hybridoma (human V regions, kappa light chain, mouse Fc captured by anti-mouse Fc sensors); also called 75110_07124A) VH: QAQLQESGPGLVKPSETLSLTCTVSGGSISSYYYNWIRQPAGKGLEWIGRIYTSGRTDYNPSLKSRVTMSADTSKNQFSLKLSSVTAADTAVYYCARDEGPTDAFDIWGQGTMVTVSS VL: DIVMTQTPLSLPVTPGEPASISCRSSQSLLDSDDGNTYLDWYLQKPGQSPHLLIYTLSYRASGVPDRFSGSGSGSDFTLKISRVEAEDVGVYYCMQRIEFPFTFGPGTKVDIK
0.19
